Target: UniProt O84866
Sequence (O84866 276-601): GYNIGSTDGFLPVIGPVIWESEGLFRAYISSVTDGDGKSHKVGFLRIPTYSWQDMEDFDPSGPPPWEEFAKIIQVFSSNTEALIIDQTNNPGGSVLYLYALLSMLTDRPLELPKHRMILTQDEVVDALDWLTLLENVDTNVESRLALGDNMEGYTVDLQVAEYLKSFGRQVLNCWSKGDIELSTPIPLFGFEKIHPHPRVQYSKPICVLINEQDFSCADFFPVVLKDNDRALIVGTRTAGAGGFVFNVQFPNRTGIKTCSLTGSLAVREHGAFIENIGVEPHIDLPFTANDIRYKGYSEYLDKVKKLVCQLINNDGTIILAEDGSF
Sequence (O84866 24-234): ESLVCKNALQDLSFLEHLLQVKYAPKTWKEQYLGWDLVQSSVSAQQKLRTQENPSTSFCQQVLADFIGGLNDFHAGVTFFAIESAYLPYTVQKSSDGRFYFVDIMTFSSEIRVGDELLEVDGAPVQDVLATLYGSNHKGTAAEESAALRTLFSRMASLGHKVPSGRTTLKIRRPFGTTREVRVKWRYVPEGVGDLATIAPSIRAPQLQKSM
readout.name: IC50 (µM)
Give a bare numeral; the unit µM is implied.

Q. Notebook: pull reported IC50 for UniProt O84866, entry CC(=O)N[C@@H](CSC(=O)[C@]1([C@@H](O)C(C)C)NC(=O)[C@H](C)[C@@H]1O)C(=O)O [Lactacystin, lactacystin, reference compound]
A. 10
